- System: Wnt
- test.details: Luciferase reporter assay, Wnt, T98G
- Assay type: cell-based
- reported.conditions: Homo sapiens; T98G cells; inducer m-wnt3a; dash: not inhibited by more than 40% at 50 µmol/L
pIC50: −log10 of the molar value.
test.readout: pIC50

# input Which pIC50 is listed for C=C(C)[C@H]1CC[C@H](C)C[C@@H]1c1c(O)cc(/C=C/c2ccccc2O)cc1O ?
# output < 4.30

---

- test.details: Cytotoxicity, Neutral Red, BT-549
- Assay type: cell-based
- reported.conditions: human, BT-549 breast ductal carcinoma cells, Na = not active up to 50 µg/mL
test.readout: IC50 at 48 h (µg/mL)
State the answer as a number, implicitly in µg/mL.

# input Which IC50 at 48 h is reported for this compound? C=C(C)[C@H]1CC[C@H](C)C[C@@H]1c1c(O)cc(/C=C/c2ccccc2O)cc1O
# output 36

# input Would you kindly share the measured IC50 at 48 h for C=C(C)[C@H]1CC[C@H](C)C[C@@H]1c1c(O)cc(-c2cc3ccccc3o2)cc1O ?
# output 47

# input Could you tell me which IC50 at 48 h is on file for COc1cccc2c1C(=O)c1c(O)c3c(c(O)c1C2=O)C[C@@](O)(C(=O)CO)C[C@@H]3O[C@H]1C[C@H](N)[C@H](O)[C@H](C)O1 [Doxorubicin, reference compound] ?
# output 2.4
